Where do these numbers come from? They come from patent US20240301076A1.

- ASSAY SYSTEM: T1, human CXCR2 (human, UniProt P25025 1-360)
- T1 construct: also called CXC chemokine receptor 2; hCXCR2
- T1 sequence: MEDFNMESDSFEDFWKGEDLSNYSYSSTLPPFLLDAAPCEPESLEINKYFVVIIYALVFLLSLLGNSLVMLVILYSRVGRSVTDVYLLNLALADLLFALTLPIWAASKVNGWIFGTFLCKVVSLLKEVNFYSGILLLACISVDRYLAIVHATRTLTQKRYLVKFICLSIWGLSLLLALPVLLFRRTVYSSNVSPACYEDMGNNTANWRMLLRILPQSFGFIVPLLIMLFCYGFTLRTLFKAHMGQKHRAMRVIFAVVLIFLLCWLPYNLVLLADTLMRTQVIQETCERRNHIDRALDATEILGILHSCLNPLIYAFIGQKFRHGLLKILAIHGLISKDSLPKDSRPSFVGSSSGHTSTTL
- METHOD SUMMARY: flow cytometry, transfected Expi293F cells
MEASURED METRIC: binding result

BKO-9A8 (antibody, human IgG4 S228P, lambda, V domains shown, recombinant human IgG4 S228P, lambda) VH: EVQLLESGGGLVQTGGSLRLSCAASGFTFSSNTMSWVRQAPGKGLEWVSAISGSGGRTYYVDSVKGRFTISRDNSKNTLYLQMHSLRAEDTAVYYCAIQLGSWGQGILVTVSS VL: QSALTQPPSASGSPGQSVTISCTGTSSDVGAYNYVSWYQQHPGKAPKLMIYEVTKRPSGVPDRFSGSKSGNTASLTVSGLQAEDEADYYCSSYAGNNNFGVFGGGTKLTVLG    binds
BKO-3A9_b (antibody, human IgG4 S228P, lambda, V domains shown, recombinant human IgG4 S228P, lambda) VH: QVQVQQSGPGLVKPSQTLSLTCAISGDSVSSNSAAWNWIRQSPSRGLEWLGRTYYRSKWYNDYAVSLKRRITIRPDTSRNHFSLHLSSVTPEDTAVYYCVRAYCGGGSCLDYWGQGTLVTVSS VL: QSALTQPASASGSPGQSITISCTGTSSDVGNYNRVSWYQQHPGKVPKLMIYEGSKRPSGISNRFSGSKSGNTASLTISGLQPEDEADYFCCSYAGSNTLVFGGGTKLTVLG    binds
BKO-1D1 (antibody, human IgG4 S228P, lambda, V domains shown, recombinant human IgG4 S228P, lambda) VH: EVQLLESGGGLVQPGGSLRLSCAASKLTFKNSAMSWVRQAPGKGLEWVSAITGSGGRTYYADSVKGRFTISRDNSKNTLYLQMNSLRAEDTAIYYCAIQMGYWGQGILVTVSS VL: QSALTQPPSASGSPGQSVTISCTGTSSDVGGYNYVSWYQQHPGKAPKLMIYEVNKRPSGVPARFSGSKSGNTASLTVSGLQAEDEADYYCSSYAGSNNFGVFGGGTKLTVLG    binds
